procedure-summary: TOR pathway GLN3 branch reporter MEP2-GFP changes – S. cerevisiae, multiplex flow cytometry, primary screen (AID 1867);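 note: median GFP channel fluorescence of barcode-gated MEP2-GFP cells measured by flow cytometry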
run-parameters: S. cerevisiae MEP2-GFP strain, 3 h, at 10 µM, 100% means same as DMSO wells
Inconclusive results are not listed. Calls of active or inactive are those of the source.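 Rule for the calls: active = GFP response, as percent of the DMSO control, above the screen-wide mean plus 3 SD, about 139; inconclusive = no response measured because the compound's own fluorescence interfered; inactive = the rest.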
Can you answer with just one of these options? active, inactive

                                   compound  category
0           Cc1nnc(NS(=O)(=O)c2ccc(N)cc2)s1  inactive
1  O=C(O)[C@H](Cc1ccccc1)NC(=O)N1CCC(Cc2ccccc2)CC1  inactive
2                       CCCc1cc(C(N)=S)ccn1  inactive
3  CC1(C)O[C@@H]2C[C@H]3[C@@H]4C[C@H](F)C5=CC(=O)C=C[C@]5(C)[C@@]4(F)[C@@H](O)C[C@]3(C)[C@]2(C(=O)CO)O1  inactive
4  NC(=O)[C@@H]1[C@@H]2C(=O)N(c3ccc(F)cc3)C(=O)[C@@H]2[C@H]2C=Cc3ccccc3N21  inactive

## Input # fetch the recorded call for O=C(CN1C(=O)c2ccccc2S1(=O)=O)Nc1ccccc1 here
## Output inactive

## Input Hi, sorry to bother you, what did the test record for CC(=O)[C@H]1CC[C@H]2[C@@H]3CCC4=CC(=O)CC[C@]4(C)[C@H]3[C@H](O)C[C@]12C ?
## Output active

## Input Please state the recorded outcome for this compound: Cc1ccsc1C1NC(=O)c2ccccc2N1 (configuration not stated)
## Output inactive

## Input Hi team, can someone confirm the assay call for CCc1nc2ccccc2n1Cc1ccc(OC)c(OC)c1 ?
## Output inactive

----------
Measured inhibition of individual entries
assay-system: ATP-binding cassette sub-family B member 6 (Homo sapiens) (UniProt Q9NP58)
Sequence (Q9NP58 whole entry, looked up): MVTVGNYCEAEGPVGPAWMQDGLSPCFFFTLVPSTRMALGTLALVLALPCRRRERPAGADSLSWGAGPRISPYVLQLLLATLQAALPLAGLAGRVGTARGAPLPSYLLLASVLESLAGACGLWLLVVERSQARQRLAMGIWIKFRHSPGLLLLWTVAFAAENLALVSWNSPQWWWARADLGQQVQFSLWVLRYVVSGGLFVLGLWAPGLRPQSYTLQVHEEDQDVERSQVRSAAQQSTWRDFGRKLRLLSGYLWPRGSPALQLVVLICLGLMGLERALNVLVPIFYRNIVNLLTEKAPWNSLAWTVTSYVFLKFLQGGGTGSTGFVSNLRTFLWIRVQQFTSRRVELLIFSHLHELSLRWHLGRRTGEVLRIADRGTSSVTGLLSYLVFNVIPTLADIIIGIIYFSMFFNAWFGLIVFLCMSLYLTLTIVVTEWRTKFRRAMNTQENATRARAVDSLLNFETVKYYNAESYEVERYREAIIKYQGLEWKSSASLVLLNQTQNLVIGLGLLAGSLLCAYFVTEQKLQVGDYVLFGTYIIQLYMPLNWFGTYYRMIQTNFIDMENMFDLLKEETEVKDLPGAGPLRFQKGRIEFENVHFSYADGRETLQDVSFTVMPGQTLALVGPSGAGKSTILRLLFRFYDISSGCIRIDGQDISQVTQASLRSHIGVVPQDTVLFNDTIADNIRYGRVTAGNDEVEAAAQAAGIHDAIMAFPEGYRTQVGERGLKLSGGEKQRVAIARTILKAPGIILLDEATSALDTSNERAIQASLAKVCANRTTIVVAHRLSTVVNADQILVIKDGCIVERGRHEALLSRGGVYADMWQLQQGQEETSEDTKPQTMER
procedure-summary: blockers of ABCB6-driven porphyrin uptake – K562-ABCB6 cells, flow cytometry, validation set, pilot screen (AID 588550);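 note: 0% = DMSO wells and 100% = benzethonium chloride 70 µM positive control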
run-parameters: K562-ABCB6 porphyrin accumulation, 1 h, at 10 µM, stronger effect = higher value
Write it as a number; the unit % goes unstated.

Completed entries (count: 8):
compound	inhibition / %
CC[N+](C)(C)c1cccc(O)c1	-7
C[C@H]1O[C@@H](O[C@H]2[C@@H](O)C[C@H](O[C@H]3[C@@H](O)C[C@H](O[C@H]4CC[C@@]5(C)[C@H](CC[C@@H]6[C@@H]5C[C@@H](O)[C@]5(C)[C@@H](C7=CC(=O)OC7)CC[C@]65O)C4)O[C@@H]3C)O[C@@H]2C)C[C@H](O)[C@@H]1O	-10
O=S(=O)(CCc1nc2ccccc2[nH]1)c1ccc(Cl)cc1	-7
CC(C)(CO)CNC(=O)CC1C(=O)NCCN1CC(c1ccccc1)c1ccccc1 (configuration not stated)	7
COc1cccc(CC(=O)NCC2COc3ccccc3O2)c1OC (configuration not stated)	63
C=CCC1(O)C(=O)N2C(=C1C(=O)N1CCOCC1)c1ccccc1CC2(C)C (configuration not stated)	-7
CC1(C)CC(=O)c2cnc(NC(=O)C3CCCC3)nc2C1	-50
Cc1nc(N)nc2c1CCCC2	13

## Input Write down the reported inhibition (system: ATP-binding cassette sub-family B member 6 (Homo sapiens) (UniProt Q9NP58)) of CC(C)(S)[C@@H](N)C(=O)O
## Output 5

## Input Look up and report inhibition, with ATP-binding cassette sub-family B member 6 (Homo sapiens) (UniProt Q9NP58) as system, for CCOC(=O)C1C(=O)OC(C)(C)C1C(C)C(=O)c1ccc(C)cc1 (configuration not stated)
## Output 5

## Input Quote ATP-binding cassette sub-family B member 6 (Homo sapiens) (UniProt Q9NP58) inhibition for entry COc1ccc(C(=O)COc2ccc(F)cc2)c(O)c1 .
## Output 1

## Input Give inhibition for NNC(=O)c1cc(O)c(O)c(O)c1 tested on ATP-binding cassette sub-family B member 6 (Homo sapiens) (UniProt Q9NP58).
## Output 5

## Input Tell me inhibition of CC(C)C12CN3CC(C(C)C)(CN(C1)C3c1ccccc1O)C2=O (configuration not stated) when tested on ATP-binding cassette sub-family B member 6 (Homo sapiens) (UniProt Q9NP58).
## Output 5

## Input Provide the reported inhibition (system: ATP-binding cassette sub-family B member 6 (Homo sapiens) (UniProt Q9NP58)) for COc1ccc(CCN(C)CCCC(C#N)(c2cc(OC)c(OC)c(OC)c2)C(C)C)cc1OC (configuration not stated)
## Output 9

## Input Jot down inhibition (ATP-binding cassette sub-family B member 6 (Homo sapiens) (UniProt Q9NP58)) of CC(C)(C)OC(=O)COc1cc(OCC(=O)OC(C)(C)C)c2c(=O)cc(-c3ccccc3)oc2c1 .
## Output 35

----------
procedure-summary: Nile Red efflux blockade in pump-expressing yeast – validation compound set, multiplex, phenotypic, pilot screen (AID 588506);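 note: Nile Red retained in cells so higher fluorescence means more efflux inhibition; 0 = negative control wells and 1 = enniatin B 25 µM full block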
run-parameters: S. cerevisiae pump-expressing triplex, Nile Red efflux flow cytometry; at 10 µM; stronger effect = higher value; the pumps come from Candida albicans
Peptide text beside a SMILES is read from it.
Mark each entry YES if its efflux inhibition (fraction of control) sits below 0.1, and NO for all others.

>>> df
                                   molecule  category
0                     Cn1c(=S)n(C)c2ccccc21       YES
1  COc1cc2c(cc1OC)C(c1ccc(-c3cc(Cl)ccc3Cl)o1)=NCC2        NO

## Input For CC12CN3CC(C)(CN(C1)C3c1ccc(Br)cc1O)C2 (stereo unspecified) , is the recorded efflux inhibition (fraction of control) below the cut-off of 0.1?
## Output NO

## Input Please check: efflux inhibition (fraction of control) for O=C(CCC(=O)NCCO)NCCO , strictly under 0.1 or not?
## Output YES

## Input For COc1cc(-c2nnc(-c3cccs3)o2)cc(OC)c1OC , is the recorded efflux inhibition (fraction of control) below the cut-off of 0.1?
## Output NO

## Input Given the entry CC(C)C(=O)Nc1c(O)c2ccccc2[nH]c1=O , would its reported efflux inhibition (fraction of control) be below 0.1?
## Output NO

## Input Confirm or reject: efflux inhibition (fraction of control) of COc1cccc(N2C(=O)CC(c3c[nH]c4ccccc34)C2=O)c1 (stereo unspecified) lies strictly below 0.1
## Output YES

## Input efflux inhibition (fraction of control) strictly < 0.1 for this molecule? CC(C)C1CC(CCNCc2ccc(N(C)C)cc2)(c2ccccc2)CCO1 (stereo unspecified)
## Output YES

## Input efflux inhibition (fraction of control) strictly < 0.1 for this molecule? CC(=O)NC(CC(C)C)C(=O)NC(Cc1ccccc1)C(N)=O (stereo not drawn) (Ac-Leu-Phe-NH2; configuration not given here)
## Output YES

## Input Regarding CCN(CCCCCN(C)C)Cc1cc2ccccc2o1 , kindly confirm whether its efflux inhibition (fraction of control) is beneath 0.1.
## Output YES

## Input Below 0.1 on efflux inhibition (fraction of control)? Entry CC12CCC(C(=O)NNc3ccccc3)(C(=O)C1=O)C2(C)C (stereo unspecified)
## Output YES

----------
assay-system: GTPase HRas (Homo sapiens)
procedure-summary: Ras wt fluorescent GTP loading blockade – biochemical, wildtype, multiplex bead flow cytometry, dose response (AID 1335)
run-parameters: bead-based flow cytometry, Bodipy-GTP binding to GST-Ras; at 100 µM (top of the series) unless noted
endpoint-name: GTP binding, percent of control (%)
Form entry: value (%) — number only.

## Input Provide one value: measured GTP binding, percent of control of Cc1ccc(OCc2ccccc2C)c(C(=O)O)c1
## Output 207

## Input Identify the reported GTP binding, percent of control for the following entry. CCOC(=O)Cn1c(=O)c2c(nc(N3CCCCC3)n2C)n(C)c1=O
## Output 63.3

## Input Give the value of GTP binding, percent of control reported for the following: Cc1cc2ccccn2c1C(=O)c1cc([N+](=O)[O-])cc([N+](=O)[O-])c1
## Output 85.6

## Input Quote GTP binding, percent of control reported for O=[N+]([O-])c1cc(Cc2ccccc2)cc(C=Nc2ccc(N3CCOCC3)cc2)c1O please.
## Output 65.5

## Input Annotate the compound Cc1ccc(-n2c(=O)[nH]c3c(oc4ccccc43)c2=O)cc1 with its measured GTP binding, percent of control.
## Output 78.7

## Input Give the reported value of GTP binding, percent of control for this record: CCOC(=O)CNC(=O)c1cccnc1SCCc1ccccc1
## Output 125

## Input Entry Cc1cccc2cc(CN(Cc3cccs3)C(c3nnnn3C3CCCC3)C(C)C)c(=O)[nH]c12 (stereo not given) needs its GTP binding, percent of control filled in; supply it.
## Output 60.6

## Input Please supply the value of reported GTP binding, percent of control for the item COc1ccccc1-n1cc([C@@H]2C[C@H]3CN(c4ccccc4)C(=O)[C@]34CCCN24)cn1
## Output 119

## Input Identify the reported GTP binding, percent of control for the following entry. Cc1nc2nc(SCC(=O)O)nn2c(C)c1Cc1ccccc1Cl
## Output 84

## Input Query GTP binding, percent of control for O=C(O)c1ccc(Nc2nc(-c3cccnc3)nc3ccccc23)cc1
## Output 66.3
